B1: TPR t1 (parent)
chain: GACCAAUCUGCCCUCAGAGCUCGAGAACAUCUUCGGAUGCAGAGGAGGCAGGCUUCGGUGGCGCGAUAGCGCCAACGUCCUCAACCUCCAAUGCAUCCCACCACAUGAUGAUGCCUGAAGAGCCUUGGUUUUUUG

- Variants of: B1
- Experiment: polymerase ribozyme fitness, log enrichment relative to wild type (log ratio); higher = more active; in vitro selection for triplet polymerase activity
The entries below are paired with their reported polymerase ribozyme fitness (log ratio).
Lab note: jot down the number only; don't add units.

- GACCAAUCUGCCCUCAGAGCUCGAGAACAUCUUCGGAUGCAGAGGUGGCAGCCUUCGGUGGCGCGAUAGCGCCAACGUCCUCAACCGCCAAUGCAUCCCACCACAUGAUGAUGCCUGAAGAGCCUUGGUUUUUUU: -1.01
- GACCACUCUGCCCUCAGAGCUCGAGAACAUCUUCGGAUGCAGAGGAGGCAGGGUUCGGUGGCGCGAUAGCGACAACGUCCUCAACCUCCAAUGCAUCCCACCACAUGAUGAUGCCUGAAGAGUCUUGGUUUUCUG: 0.968
- GACCAAUCUGCCCUCAGAGCUCGAGAACAACUUCGGAUGCAGAGGAGGCAGGCUUCGGUGGCGCGAUAGCGCCAACGUCCUCAACCUCCAAUGCAUCCCACCAUAUGAUGAUGCCUGAAGCGCCUUGGUUUUUUG: -4.08
- GACGAAUCUGCCCUCAGAGCUCGAGAACAUCUUCGGUUGCAGAGGAGGCAGGCUUCGGUGGCGCGAUAGCGCCAACGUCCUCAACCUCCCAUGCAUCCCACCACAUGAUGAUGCCUGAAGAGCCUUGGUUUUUUG: -2.66

Now let's try a different one.
Value lookup for polymerase ribozyme fitness (log ratio); key = GACCAAUCUGCCCUCAGAGCUCGAGAACAUCUUCGGAUACAGAGGAGGCAGGCUUCGGUGGCGCGAUAGCGCCAACGUCCUCAACCUCCAAUGCAUCCCACCACAUGAUGAUCCCUGAAGAGCGUUGGUUUUUUG
-1.58
